molecular target: purified HLA DRB1*0405 (human); assay: competitive inhibition of 125I-labeled peptide binding to purified HLA
PROPERTY_MEASURED: IC50 (µM)
All answers are understood in µM, so give the number only.

Consider RREVHIYYLEKANKI (modifications not checked) [Flu.PA.127 peptide …] . Its measured IC50 is 1.49
